Values compiled from ChEMBL document CHEMBL5257124.

- Test system: Ralstonia solanacearum
- TEST METHOD NOTES: Antibacterial activity against Ralstonia solanacearum assessed as bacterial growth inhibition
- Format: functional
Each record is given T if its reported MIC is strictly below 30 µg/mL. Records at or above 30 µg/mL are given F.

Use the examples below as a reference point.
# CHEMICAL STRUCTURE, LABEL CLASS
data = [
    ("FC(F)(F)c1ccc(CN2CCN(Cc3c[nH]c4ccc(Br)cc34)CC2)c(N2CCCC2)c1", "F"),
    ("Cn1cc(CN2CCN(Cc3ccc(Cl)cc3Cl)CC2)c2cc(Br)ccc21", "F"),
]

Data request: Say whether its MIC is strictly beneath 30 µg/mL. Entry: Clc1ccc(CN2CCN(Cc3c[nH]c4ccc(Br)cc34)CC2)c(Cl)c1
Data returned: T

Data request: Quick check: does Cn1cc(CN2CCN(Cc3ccc(Cl)cc3Cl)CC2)c2cc(C#N)ccc21 have MIC under 30 µg/mL?
Data returned: T

Data request: Consider the compound Cn1cc(CN2CCN(Cc3ccc(C(F)(F)F)cc3N3CCCC3)CC2)c2cc(F)ccc21 . Is its MIC strictly less than 30 µg/mL?
Data returned: F

Data request: I wonder whether Cn1cc(CN2CCN(Cc3ccc(C(F)(F)F)cc3N3CCCC3)CC2)c2cc(Br)ccc21 has MIC below 30 µg/mL. Can you tell?
Data returned: T

Data request: Given Cn1cc(CN2CCN(Cc3ccc(C(F)(F)F)cc3N3CCCC3)CC2)c2cc([N+](=O)[O-])ccc21 , is recorded MIC strictly lower than 30 µg/mL?
Data returned: F

Data request: Is MIC strictly under 30 µg/mL for the entry Cn1cc(CN2CCN(Cc3ccc(C(F)(F)F)cc3N3CCCC3)CC2)c2cc(Cl)ccc21 ?
Data returned: F

Data request: Strictly below 30 µg/mL: is that where MIC of Cn1cc(CN2CCN(Cc3ccc(C(F)(F)F)cc3N3CCCC3)CC2)c2cc(C#N)ccc21 sits?
Data returned: F

Data request: Does this compound meet the criterion MIC < 30 µg/mL? O=[N+]([O-])c1ccc2[nH]cc(CN3CCN(Cc4ccc(Cl)cc4Cl)CC3)c2c1
Data returned: F

* * *

- System: Staphylococcus aureus
- TEST METHOD NOTES: Bactericidal activity against methicillin resistant Staphylococcus aureus ATCC 33591 assessed as reduction in bacterial growth
- Assay type: functional
EXPERIMENTAL READOUT: MBC (µg/mL)
Expressed in µg/mL, but write only the number.

Data request: Form field: MBC recorded for Cn1cc(CN2CCN(Cc3ccc(Cl)cc3Cl)CC2)c2cc(Br)ccc21 with Staphylococcus aureus (enter value)
Data returned: 8

Data request: Observed MBC on Staphylococcus aureus for FC(F)(F)c1ccc(CN2CCN(Cc3c[nH]c4ccc(Cl)cc34)CC2)c(N2CCCC2)c1 , please.
Data returned: 8

Data request: What value of MBC on Staphylococcus aureus does Cn1cc(CN2CCN(Cc3ccc(Cl)cc3Cl)CC2)c2cc(Cl)ccc21 have?
Data returned: 8
